Field: Percent Effect. Provide a value for each of the compounds that follow.
- TESTED ON: Shiga toxin 2 (Escherichia coli O157:H7) (UniProt P09385+P09386)
- METHOD SUMMARY: E. coli 0.157:H7 Shiga Toxin SOP - stx2 screening assay
- Type: functional
- Set-up: scale not given: direction of the effect not stated beside the values
- ASSAY CONDITIONS: 30 µM
Note: unit % is implicit; provide only the numeric part.

Qu. Please give the measured Percent Effect for this compound: CCS(=O)(=O)c1ccccc1N1CCC(NC(=O)NC2CCCC2)CC1
Ans. 7.11

Qu. Quick one: Cc1nc(C)c(C(=O)N2CCCC2c2nnc3n2CCCCC3)s1 (configuration not stated)
Ans. -17.2

Qu. Quick one: CCOCC1CC2(CCN(C(=O)c3ccccn3)CC2)CO1 (configuration not stated)
Ans. 5.8

Qu. Quick one: Cc1ccc(NC2CCN(C(=O)c3ccc(Cl)o3)CC2)nn1
Ans. 7.55

Qu. Quick one: COCCO[C@@H]1C[C@H]2CN(C(=O)c3cnccn3)CCN2C1
Ans. -13

Qu. Quick one: c1cnnc(N2CCCC(NCc3ccc(-n4cccn4)cc3)C2)c1 (configuration not stated)
Ans. 11

Qu. Quick one: Cc1ccc(CN2CCCn3c(nc(Cn4cncn4)cc3=O)C2)s1
Ans. -10.9

Qu. Quick one: Cn1cnc2c1C(COCC1CC1)CN(C(=O)Cc1ccsc1)C2 (configuration not stated)
Ans. -17.9

Qu. Quick one: CCS(=O)(=O)Nc1ccn(Cc2cccc(Cl)c2)n1
Ans. -12.9

Qu. Quick one: CN(C)[C@@H]1CCN(c2ncccn2)[C@H]1Cc1ccncc1
Ans. -22.4

Qu. Quick one: CCOCC1CN(S(C)(=O)=O)Cc2cnn(C)c21 (configuration not stated)
Ans. -35.8

Qu. Quick one: CN1CC(=O)N(c2cccnc2)CC12CCN(C(=O)c1cccnc1)C2 (configuration not stated)
Ans. -12
